# TESTED ON: UniProt P52333
# Sequence (P52333 whole entry): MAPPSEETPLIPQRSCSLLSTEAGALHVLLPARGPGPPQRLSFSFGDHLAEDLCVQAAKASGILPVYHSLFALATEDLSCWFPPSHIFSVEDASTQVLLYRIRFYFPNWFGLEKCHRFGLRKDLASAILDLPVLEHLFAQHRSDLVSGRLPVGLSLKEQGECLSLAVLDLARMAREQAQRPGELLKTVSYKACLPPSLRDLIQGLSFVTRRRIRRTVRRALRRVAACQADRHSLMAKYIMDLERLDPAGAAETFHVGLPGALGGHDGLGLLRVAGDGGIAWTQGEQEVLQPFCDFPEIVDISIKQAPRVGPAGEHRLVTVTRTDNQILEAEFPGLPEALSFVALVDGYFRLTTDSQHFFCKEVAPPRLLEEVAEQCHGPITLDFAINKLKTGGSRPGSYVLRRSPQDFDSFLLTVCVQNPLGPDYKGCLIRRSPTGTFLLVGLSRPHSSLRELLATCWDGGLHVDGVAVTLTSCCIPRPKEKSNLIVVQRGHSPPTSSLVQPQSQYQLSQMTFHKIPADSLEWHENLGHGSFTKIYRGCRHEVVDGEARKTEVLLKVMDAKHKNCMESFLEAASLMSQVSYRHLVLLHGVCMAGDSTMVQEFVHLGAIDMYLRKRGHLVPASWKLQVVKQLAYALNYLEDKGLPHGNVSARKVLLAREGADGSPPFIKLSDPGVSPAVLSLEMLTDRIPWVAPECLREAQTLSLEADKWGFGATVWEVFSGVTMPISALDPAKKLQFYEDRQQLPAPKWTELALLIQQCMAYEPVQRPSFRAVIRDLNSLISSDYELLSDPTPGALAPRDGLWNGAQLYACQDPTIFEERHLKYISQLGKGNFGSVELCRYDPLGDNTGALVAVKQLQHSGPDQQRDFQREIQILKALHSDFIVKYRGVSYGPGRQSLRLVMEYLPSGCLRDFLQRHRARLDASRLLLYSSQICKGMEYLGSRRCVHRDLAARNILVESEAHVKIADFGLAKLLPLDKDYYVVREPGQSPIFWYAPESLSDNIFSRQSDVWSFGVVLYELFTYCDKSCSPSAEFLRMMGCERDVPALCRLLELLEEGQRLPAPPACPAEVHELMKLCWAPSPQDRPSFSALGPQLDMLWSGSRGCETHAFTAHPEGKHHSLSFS
# ASSAY DETAILS: Inhibition of JAK3 at 10 uM by HTRF assay relative to control
MEASUREMENT TYPE: inhibition (%)
Answers are plain numbers, in %.

Recorded inhibition, per entry:
- COMPOUND: "Nc1nc(N2CCOCC2)cc(N2CCC(C(=O)NCc3cccs3)CC2)n1"
  MEASUREMENT TYPE: "inhibition"
  MEASUREMENT UNITS: "%"
  EXPERIMENTAL VALUE: 0
- COMPOUND: "Cc1cccc(N(C)c2cc(Nc3cccc(C(=O)NCc4ccc(N(C)C)cc4)c3)ncn2)c1"
  MEASUREMENT TYPE: "inhibition"
  MEASUREMENT UNITS: "%"
  EXPERIMENTAL VALUE: 11

Kindly give each listed record's inhibition.
1. Cc1cc(C(=O)N2CCN(c3ncnc4c3CN(Cc3ccccc3)CC4)CC2)c(C)n1C
2. Nc1nc(Nc2ccccc2)cc(N2CCC(C(=O)NCCc3ccccn3)CC2)n1
3. Cc1cccc(Nc2ncnc3c2CN(C(=O)c2ccc(N(C)C)c4ccccc24)CC3)c1
4. O=C(NC1Cc2ccccc2C1)c1cccc(Nc2ccnc(N3CCN(c4ccccc4)CC3)n2)c1
5. Cc1cccc(Nc2nccc3c2CN(C(=O)c2cc(C)n(C)c2C)CC3)c1
6. Cc1cccc(N(C)c2cc(Nc3cccc(C(=O)N(CC(C)C)CC(C)C)c3)ncn2)c1
7. Nc1nc(Nc2ccc(C(=O)NCCc3ccncc3)cc2)cc(N2CCOCC2)n1
8. Cc1cccc(Nc2nccc(Nc3cccc(C(=O)N(C)CCc4ccccn4)c3)n2)c1

Out:
1: 0; 2: 0; 3: 0; 4: 0; 5: 0; 6: 0; 7: 0; 8: 50

Kindly give each listed record's inhibition.
1. CN(CCc1ccccn1)C(=O)c1cccc(Nc2nccc(Nc3ccc4ncsc4c3)n2)c1
2. Cc1cccc(N(C)c2cc(Nc3ccc(CC(=O)Nc4ccc5ncsc5c4)cc3)ncn2)c1
3. Cc1cccc(N(C)c2cc(Nc3cccc(C(=O)N(C)CCc4ccccn4)c3)ncn2)c1

Out:
1: 28; 2: 12; 3: 7

Kindly give each listed record's inhibition.
1. CC(=O)N1CCN(C(=O)c2cccc(Nc3cc(N(C)c4cccc(C)c4)ncn3)c2)CC1
2. CN(C)CC(C)(C)CNC(=O)C1CCN(c2cc(N3CCOCC3)nc(N)n2)CC1
3. Cc1cccc(Nc2nccc(Nc3cccc(C(=O)NCc4ccc(N(C)C)cc4)c3)n2)c1
4. COc1ccc(-c2noc(CN3CCN(c4cc(Nc5cccc(O)c5)ncn4)CC3)n2)cc1
5. COC(=O)C(CO)NC(=O)[C@@H]1CCCN1c1nccc(Oc2cccc(C)c2)n1 (some centres undefined)

Out:
[15, 0, 6, 9, 0]

Kindly give each listed record's inhibition.
1. CN(CCCn1ccnc1)C(=O)[C@@H]1CCCN1c1nccc(Nc2ccccc2)n1
2. O=C(CN1CCN(c2ncnc3c2CN(Cc2ccccc2)CC3)CC1)Nc1cc(F)ccc1F
3. CC(=O)CCCCC(=O)N1CCN(c2nccc(Oc3cccc(C)c3)n2)CC1
4. Cc1cccc(Oc2ccnc(N3CCC[C@H]3C(=O)NCc3cccnc3)n2)c1
5. COC[C@@H]1CCCN1C(=O)[C@@H]1CCCN1c1nccc(Nc2ccccc2)n1
6. CN(CCc1ccccn1)C(=O)[C@@H]1CCCN1c1nccc(Nc2ccccc2)n1

Out:
1. 0
2. 2
3. 0
4. 0
5. 1
6. 0

Kindly give each listed record's inhibition.
1. O=C(NCc1ccncc1)c1cccc(Nc2cc(Nc3cccc(Br)c3)ncn2)c1
2. Cc1cccc(N(C)c2cc(N3CCN(C(=O)Cc4c[nH]c5ccccc45)CC3)ncn2)c1
3. Clc1ccc2sc(CN3CCN(c4ncnc5c4CN(Cc4ccccc4)CC5)CC3)cc2c1
4. Cc1cccc(Oc2ccnc(N3CCN(CC(=O)Nc4cccc5c4CCCC5)CC3)n2)c1
5. Cc1cccc(N(C)c2cc(Nc3cccc(C(=O)NCCCn4ccnc4)c3)ncn2)c1
6. COC[C@@H]1CCCN1C(=O)C1CCCN1c1cc(Nc2cccc(Br)c2)ncn1 (some centres undefined)

Out:
[0, 0, 0, 0, 3, 8]

Kindly give each listed record's inhibition.
1. Cc1cccc(Oc2ccnc(N3CCN(C(=O)c4c(C)noc4C)CC3)n2)c1
2. COc1cccc(Nc2cc(Nc3cccc(C(=O)N(C)CCc4ccccn4)c3)nc(N)n2)c1
3. Nc1nc(Nc2ccc3ncsc3c2)cc(N2CCC[C@H]2C(=O)N[C@@H](CO)c2ccccc2)n1

Out:
1: 0; 2: 18; 3: 6

Kindly give each listed record's inhibition.
1. Nc1nc(N2CCOCC2)cc(N2CCC(C(=O)NCCc3ccc(O)cc3)CC2)n1
2. COC[C@@H]1CCCN1C(=O)[C@@H]1CCCN1c1cc(Nc2cccc(OC)c2)nc(N)n1
3. COc1ccc(NC(=O)Cc2ccc(Nc3cc(N(C)c4cccc(C)c4)ncn3)cc2)cn1
4. COc1cccc(Nc2cc(N3CCC[C@H]3C(=O)NCCN3CCCCC3)nc(N)n2)c1
5. Cc1ccc(CN2CCN(c3nccc(C(C#N)c4ccccn4)n3)CC2)cc1 (centres undefined)
6. CN(C)c1ccc(C(=O)N2CCN(c3ncnc4c3CN(Cc3ccccc3)CC4)CC2)c2ccccc12

Out:
1. 0
2. 0
3. 4
4. 0
5. 10
6. 7

---

# TESTED ON: Tyrosine-protein kinase JAK3 (Homo sapiens)
# ASSAY DETAILS: Inhibition of JAK3 at 10 uM by HTRF assay relative to control
MEASUREMENT TYPE: inhibition

Recorded inhibition, per entry:
- MOLECULE: "O=C(c1nc(SCc2ccc(Cl)cc2)n2ccccc12)N1CCN(c2ncnc3c2CN(Cc2ccccc2)CC3)CC1"
  inhibition: "3%"
- MOLECULE: "CN(C)CC(C)(C)CNC(=O)c1cccc(Nc2nccc(Nc3ccc4ncsc4c3)n2)c1"
  inhibition: "91%"
- MOLECULE: "Cc1cccc(Nc2cc(Nc3cccc(C(=O)N(CC(C)O)CC(C)O)c3)ncn2)c1 (stereo not given)"
  inhibition: "7%"
- MOLECULE: "O=C(NC[C@@H]1CCCO1)c1cccc(Nc2nccc(Nc3ccc4ncsc4c3)n2)c1"
  inhibition: "84%"

Let us move to another entry and its inhibition.
In: Find the recorded inhibition belonging to Cc1cccc(N(C)c2cc(Nc3cccc(C(=O)N4CCCC5CCCCC54)c3)ncn2)c1 (stereo not given) and report it.
Out: 0%

---

# TESTED ON: Tyrosine-protein kinase ZAP-70 (Homo sapiens)
# ASSAY DETAILS: Inhibition of ZAP70 at 10 uM by HTRF assay relative to control
MEASUREMENT TYPE: inhibition (%)
One number for each entry, in %.

Recorded inhibition, per entry:
- COMPOUND: "COC(=O)C(CO)NC(=O)[C@@H]1CCCN1c1nccc(Oc2cccc(C)c2)n1 (stereo partly drawn)"
  MEASUREMENT UNITS: "%"
  inhibition: 0
- COMPOUND: "CN(C)c1ccc(C(=O)N2CCN(c3ncnc4c3CN(Cc3ccccc3)CC4)CC2)c2ccccc12"
  MEASUREMENT UNITS: "%"
  inhibition: 2
- COMPOUND: "COc1cccc(Nc2cc(N3CCC[C@H]3C(=O)NCCN3CCCCC3)nc(N)n2)c1"
  MEASUREMENT UNITS: "%"
  inhibition: 2
- COMPOUND: "Nc1nc(Nc2ccc3ncsc3c2)cc(N2CCC[C@H]2C(=O)NCCc2cccc(I)c2)n1"
  MEASUREMENT UNITS: "%"
  inhibition: 2

Kindly give each listed record's inhibition.
1. COC[C@@H]1CCCN1C(=O)[C@@H]1CCCN1c1cc(Nc2cccc(OC)c2)nc(N)n1
2. Cc1cccc(Oc2ccnc(N3CCN(C(=O)c4c(C)noc4C)CC3)n2)c1
3. Cc1cccc(Oc2ccnc(N3CCC[C@H]3C(=O)NCc3cccnc3)n2)c1
4. Cc1cccc(Nc2cc(Nc3cccc(C(=O)N(CC(C)O)CC(C)O)c3)ncn2)c1 (stereo not drawn)

Out:
0
4
6
6

---

# TESTED ON: Inhibitor of nuclear factor kappa-B kinase subunit beta (Homo sapiens) (UniProt O14920)
# Sequence (O14920 whole entry): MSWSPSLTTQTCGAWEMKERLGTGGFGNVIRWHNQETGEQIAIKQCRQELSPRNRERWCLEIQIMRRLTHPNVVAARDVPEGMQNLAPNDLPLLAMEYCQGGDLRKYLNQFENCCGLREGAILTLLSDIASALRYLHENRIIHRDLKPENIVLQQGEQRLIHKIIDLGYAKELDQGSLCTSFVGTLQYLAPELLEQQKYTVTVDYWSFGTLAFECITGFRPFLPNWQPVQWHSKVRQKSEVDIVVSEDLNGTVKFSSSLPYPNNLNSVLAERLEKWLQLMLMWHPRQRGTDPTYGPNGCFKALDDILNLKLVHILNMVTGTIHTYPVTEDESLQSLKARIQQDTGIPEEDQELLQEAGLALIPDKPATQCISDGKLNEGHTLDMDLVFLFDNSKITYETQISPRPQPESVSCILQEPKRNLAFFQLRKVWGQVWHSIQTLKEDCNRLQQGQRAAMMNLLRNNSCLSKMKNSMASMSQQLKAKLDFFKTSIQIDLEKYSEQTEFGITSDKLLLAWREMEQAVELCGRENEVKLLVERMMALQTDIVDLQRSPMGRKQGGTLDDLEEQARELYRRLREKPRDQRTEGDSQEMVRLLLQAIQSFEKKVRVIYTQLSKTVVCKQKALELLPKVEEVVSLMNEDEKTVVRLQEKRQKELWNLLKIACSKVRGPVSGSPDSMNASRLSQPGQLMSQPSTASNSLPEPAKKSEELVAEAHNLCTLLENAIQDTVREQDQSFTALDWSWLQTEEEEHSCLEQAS
# ASSAY DETAILS: Inhibition of IKK-beta at 10 uM by HTRF assay relative to control
Exercise: state measured inhibition for each of the compounds provided.
Answers are plain numbers, in %.

Kindly give each listed record's inhibition.
1. COc1cccc(Nc2cc(N3CCC[C@H]3C(=O)NCCN3CCCCC3)nc(N)n2)c1
2. O=C(c1nc(SCc2ccc(Cl)cc2)n2ccccc12)N1CCN(c2cc(Nc3cccc(Br)c3)ncn2)CC1
3. Cc1cccc(N(C)c2cc(Nc3cccc(C(=O)N(CC(C)C)CC(C)C)c3)ncn2)c1
4. Nc1nc(Nc2ccc(C(=O)NCCc3ccncc3)cc2)cc(N2CCOCC2)n1
5. Nc1nc(N2CCOCC2)cc(N2CCC(C(=O)NCc3cccs3)CC2)n1
6. O=C(NC[C@@H]1CCCO1)c1cccc(Nc2nccc(Nc3ccc4ncsc4c3)n2)c1
7. CN(C)CC(C)(C)CNC(=O)C1CCN(c2cc(N3CCOCC3)nc(N)n2)CC1
8. CC(=O)CCCCC(=O)N1CCN(c2nccc(Oc3cccc(C)c3)n2)CC1

Out:
1: 6; 2: 1; 3: 0; 4: 4; 5: 5; 6: 45; 7: 6; 8: 4

Kindly give each listed record's inhibition.
1. Cc1cccc(Nc2nccc3c2CN(C(=O)c2cc(C)n(C)c2C)CC3)c1
2. Cc1cccc(Oc2ccnc(N3CCN(C(=O)c4c(C)noc4C)CC3)n2)c1

Out:
1: 0; 2: 3
